meta.source: patent US20160193316A1

Biological target: DRB1*0701 (DR7) (Homo sapiens, UniProt P01903+P01911, A100R/A102G/A103Q/D57E/D86V/E43K/F76Y/K127E/L162R/M171V/P40G/Q125H/Q99D/R33Q/R42Y/R54Q/S133A/S66F/T210M/V115G/Y107V/Y59L/Y89S)
Construct: endogenous in cells; host or cells: Pitout
Assay: biochemical
Assay type: binding
ENDPOINT LABEL: DR7 binding data
Please reply with the value in numeric form only.

Illustrative cases are given below, each with its answer.
ITEM SEQUENCE: LAILSVSSF
DR7 binding data: 0.0500
--
ITEM SEQUENCE: LHEGCTSEL
DR7 binding data: -0.0003

Qu. GET /values?readout=DR7 binding data&item= `YQNNIVDEI`
Ans. -0.0003

Qu. GET /values?readout=DR7 binding data&item= `YGRLEIPAI`
Ans. -0.0003

Qu. GET /values?readout=DR7 binding data&item= `LGGVGLVLY`
Ans. 0.0007

Qu. GET /values?readout=DR7 binding data&item= `LVTVFLIFF`
Ans. 0.0010

Qu. GET /values?readout=DR7 binding data&item= `LALLACAGL`
Ans. 0.0009

Qu. GET /values?readout=DR7 binding data&item= `FYFILVNLL`
Ans. 0.0020

Qu. GET /values?readout=DR7 binding data&item= `LATSVLAGL`
Ans. 0.6500

Qu. GET /values?readout=DR7 binding data&item= `LEEKAAKET`
Ans. -0.0003

Qu. GET /values?readout=DR7 binding data&item= `LGNVSTVLL`
Ans. 0.4300
